These measurements were taken from paper PMC8041433.

Please respond with reported Efficacy for every item in the list.
Target: recombinant human AChE (Homo sapiens)
Where a name gives a salt, the structure may show the parent alone.
Number only, please.

Data request: Supply reported Efficacy belonging to this molecule: CC(C)Nc1nc(Cl)nc(NC(C)C)n1 [Propazine]
Data returned: 0

Data request: Name the recorded Efficacy of the item CNC(=O)Oc1ccc(N(C)C)c(C)c1 [Aminocarb] in your answer.
Data returned: -71.886

Data request: For Cl.Clc1cc(Cl)c2c(c1)N=C1CCCCCN1C2 [PharmaGSID_47259] , write its Efficacy.
Data returned: -90.391

Data request: Provide measured Efficacy value, entry: CNP(=O)(OC)Oc1ccc(C(C)(C)C)cc1Cl (stereo not shown) [Crufomate]
Data returned: -16.11

Data request: Read the entry COP(=S)(OC)Oc1nc(Cl)c(Cl)cc1Cl [Chlorpyrifos-methyl] and write its reported Efficacy.
Data returned: 0

Data request: Please look at this molecule and report its Efficacy: COc1cc(C(=O)NCc2ccc(OCCN(C)C)cc2)cc(OC)c1OC [Trimethobenzamide hydrochloride]
Data returned: -14.276

Data request: Indicate its recorded Efficacy; the molecule in question is N=C(N)NC(=O)c1nc(Cl)c(N)nc1N [Amiloride hydrochloride]
Data returned: 0

Data request: Respond only with Efficacy recorded for CN1C(=O)COc2c(C(=O)NC3CN4CCC3CC4)cc(Cl)cc21 (stereo not shown) [Azasetron hydrochloride, reference compound]
Data returned: 0

Data request: Identify the reported Efficacy for the following entry. O=C(O)/C=C\C(=O)O.O=C(O)/C=C\C(=O)O.c1cc(CN2CCCCC2)cc(OCCCNc2nc3ccccc3s2)c1 [Zolantidine dimaleate]
Data returned: 0

Data request: Return value of Efficacy for input Nc1c(NC/C=C\COc2cc(CN3CCCCC3)ccn2)c(=O)c1=O [Pibutidine] , no commentary.
Data returned: 0

* * *

Target: recombinant human AChE (Homo sapiens, UniProt P22303)
Sequence (P22303 32-614): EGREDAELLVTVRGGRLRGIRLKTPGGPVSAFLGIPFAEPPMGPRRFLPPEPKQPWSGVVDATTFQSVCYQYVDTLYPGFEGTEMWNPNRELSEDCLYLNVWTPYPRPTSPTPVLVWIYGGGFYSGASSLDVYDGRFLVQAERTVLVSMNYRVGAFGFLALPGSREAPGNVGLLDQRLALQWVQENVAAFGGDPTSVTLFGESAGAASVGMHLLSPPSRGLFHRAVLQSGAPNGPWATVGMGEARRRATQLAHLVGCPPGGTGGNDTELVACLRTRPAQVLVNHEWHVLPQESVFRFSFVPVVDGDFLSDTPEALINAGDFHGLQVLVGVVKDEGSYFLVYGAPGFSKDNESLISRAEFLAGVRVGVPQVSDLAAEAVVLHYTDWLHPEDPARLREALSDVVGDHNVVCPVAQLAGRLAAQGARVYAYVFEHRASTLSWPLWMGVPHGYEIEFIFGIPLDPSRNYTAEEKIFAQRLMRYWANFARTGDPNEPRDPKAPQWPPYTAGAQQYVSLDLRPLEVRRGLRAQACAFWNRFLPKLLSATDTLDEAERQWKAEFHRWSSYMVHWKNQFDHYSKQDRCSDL
Experiment: biochemical
Type: biochemical
measurementType: reversibility of AChE inhibition (result in words)

- compound: "CCOP(=O)(OCC)Oc1nc(Cl)c(Cl)cc1Cl [Chlorpyrifos oxon, reference compound]"
  recordedResult: "irreversibility"
- compound: "CCOP(=S)(OCC)Oc1cc(C)nc(C(C)C)n1 [Diazinon]"
  recordedResult: "irreversibility"
- compound: "CCOP(=S)(OCC)SC(CCl)N1C(=O)c2ccccc2C1=O (centres unmarked) [Dialifor]"
  recordedResult: "irreversibility"

* * *

For each of the compounds below, state its CC-v2 (curve classes).
Molecular target: recombinant human AChE (Homo sapiens, UniProt P22303)
Assay: biochemical
Where a name gives a salt, the structure may show the parent alone.

Data request: Tell me measured CC-v2 (curve classes) for CCOP(=S)(OCC)SCn1c(=O)oc2cc(Cl)ccc21 [Phosalone] please.
Data returned: 4

Data request: Specify reported CC-v2 (curve classes) for the compound shown: COc1cc2nc(N3CCN(C(=O)C4COc5ccccc5O4)CC3)nc(N)c2cc1OC (centres unmarked) [Doxazosin mesylate]
Data returned: -2.2

Data request: Determine its reported CC-v2 (curve classes): CCCN(CCc1cccs1)[C@H]1CCc2c(O)cccc2C1 [Rotigotine]
Data returned: -2.2

Data request: Specify CC-v2 (curve classes) for COCCCOc1ccnc(C[S+]([O-])c2nc3ccccc3[nH]2)c1C (centres unmarked) [Rabeprazole sodium] and stop.
Data returned: 4

Data request: Name the recorded CC-v2 (curve classes) of the item CC(C)C[C@H]1C(=O)N2CCC[C@H]2[C@]2(O)O[C@](NC(=O)[C@@H]3C=C4c5cccc6[nH]c(Br)c(c56)C[C@H]4N(C)C3)(C(C)C)C(=O)N12 [Bromocriptine mesylate] in your answer.
Data returned: -1.1

Data request: Return CC-v2 (curve classes) for the following compound: CNC(=O)/C=C(\C)OP(=O)(OC)OC [Monocrotophos]
Data returned: -2.2

Data request: Quote CC-v2 (curve classes) reported for CCOP(=O)(OCC)Oc1cc(C)nc(C(C)C)n1 [Diazoxon] please.
Data returned: -1.1

Data request: Report measured CC-v2 (curve classes); entry is Cc1cc(OC(=O)N(C)C)nn1C(=O)N(C)C [Dimetilan]
Data returned: -1.1

Data request: Identify CC-v2 (curve classes) associated with the compound CCOP(=O)(OCC)Oc1nc(Cl)c(Cl)cc1Cl [Chlorpyrifos oxon, reference compound]
Data returned: -1.1

Data request: Consider the compound COc1ccc(OC(F)(F)F)cc1CN[C@H]1CCCN[C@H]1c1ccccc1 [CP-122721, reference compound] and give its recorded CC-v2 (curve classes).
Data returned: 4

Data request: Indicate the recorded CC-v2 (curve classes) value for this compound: O=P(Oc1ccccc1)(Oc1ccccc1)Oc1ccccc1 [Triphenyl phosphate]
Data returned: -1.1

Data request: Output measured CC-v2 (curve classes) for this item: O=S1OC[C@@H]2[C@H](CO1)[C@]1(Cl)C(Cl)=C(Cl)[C@@]2(Cl)C1(Cl)Cl (some centres unmarked) [Endosulfan I]
Data returned: -1.1

Data request: Recall and state the measured CC-v2 (curve classes) for CCN1C(=CC=Cc2sc3ccccc3[n+]2CC)Sc2ccccc21.[I-] [3,3'-Diethylthiacarbocyanine iodide] .
Data returned: -3

Data request: Return CC-v2 (curve classes) (reported value) for this compound: Cc1nc2n(c(=O)c1CCN1CCC(C(=O)c3ccc(F)cc3)CC1)CCS2 [Setoperone, reference compound]
Data returned: -2.2

Data request: Tell me CC-v2 (curve classes) reported for O=C(Nc1cccc(C2=NCCN2)c1)Nc1cccc(C2=NCCN2)c1 [Imidocarb dipropionate, reference compound]
Data returned: -2.1

Data request: Let me know recorded CC-v2 (curve classes) for CN(C)C(=S)SSC(=S)N(C)C [Thiram] , thanks.
Data returned: 4

Data request: For the compound CNC(=C[N+](=O)[O-])NCCSCc1csc(CN(C)C)n1 [Nizatidine, reference compound] , give its measured CC-v2 (curve classes) value.
Data returned: -2.1
